System: Escherichia coli
MEASUREMENT_DESCRIPTION: Antibacterial activity against Escherichia coli MTCC 739 by serial dilution method
Assay type: functional
Parameters: scale not given here
Entries and their measured -logMIC follow.
Answer as a number with no unit attached.

COc1ccc(C(=O)Nc2cccc(O)c2)cc1OC ... 1.16
CCCOC(=O)c1ccc(OC)c(OC)c1 ... 1.25
COc1ccc(C(=O)N2CCCCC2)cc1OC ... 1.1
COC(=O)c1ccc(OC)c(OC)c1 ... 1.04
O=C(O)c1cn(C2CC2)c2cc(N3CCNCC3)c(F)cc2c1=O ... 3.33
COc1ccc(C(=O)Nc2ccc(Br)cc2)cc1OC ... 1.25

Consider now this further compound.
Give the value of -logMIC reported for the following: `CCCCOC(=O)c1ccc(OC)c(OC)c1`
1.1

----------
Test system: Candida albicans
MEASUREMENT_DESCRIPTION: Antifungal activity against Candida albicans MTCC 227 by serial dilution method
Format: functional
Design: unit not given here
PROPERTY: -logMIC
Could you respond with only the numeric value?

COc1ccc(C(=O)N2CCOCC2)cc1OC ... 1.37
COC(=O)c1ccc(OC)c(OC)c1 ... 1.2
CCCCCOC(=O)c1ccc(OC)c(OC)c1 ... 1.1
COc1ccc(C(=O)Nc2ccc(Cl)cc2)cc1OC ... 1.34
COc1ccc(C(=O)Nc2cccc([N+](=O)[O-])c2)cc1OC ... 1.27

Please give the documented -logMIC of `COc1ccc(C(=O)N2CCCCC2)cc1OC`
1.25

Item `COc1ccc(C(=O)Nc2cccc(C)c2)cc1OC` : provide -logMIC
1.42

Supply reported -logMIC belonging to this compound: `COc1ccc(C(=O)NCCO)cc1OC`
1.29

Indicate the recorded -logMIC value for this compound: `OC(Cn1cncn1)(Cn1cncn1)c1ccc(F)cc1F`
2.64

Give the value of -logMIC reported for the following: `COc1ccc(C(=O)Nc2cccc(Cl)c2)cc1OC`
1.29

Recall and state the measured -logMIC for `COc1ccc(C(=O)Nc2ccccc2)cc1OC` .
1.2

Tell me measured -logMIC for `COc1ccc(NC(=O)c2ccc(OC)c(OC)c2)cc1` please.
1.36

Annotate the compound `C=CCOC(=O)c1ccc(OC)c(OC)c1` with its measured -logMIC.
1.1

Consider the compound `CCCNC(=O)c1ccc(OC)c(OC)c1` and give its recorded -logMIC.
1.25

Give -logMIC for `COc1ccc(C(=O)N(C)C)cc1OC`
1.31

Report measured -logMIC; entry is `CCCOC(=O)c1ccc(OC)c(OC)c1`
1.1

Identify -logMIC associated with the compound `COc1ccc(C(=O)OCc2ccccc2)cc1OC`
1.3

Give the value of -logMIC reported for the following: `COc1ccc(C(=O)Oc2cccc3cccnc23)cc1OC`
1.35

In one line, give reported -logMIC of the entry `CCCCCCCOC(=O)c1ccc(OC)c(OC)c1` .
1.25

Specify measured -logMIC for `COc1ccc(C(=O)Nc2cccc(O)c2)cc1OC` .
1.36

----------
Reported -logMIC values for the following compounds.
Tested on: Bacillus subtilis
MEASUREMENT_DESCRIPTION: Antibacterial activity against Bacillus subtilis MTCC 2423 by serial dilution method
Assay type: functional
Parameters: unit not given here

Answer with reported -logMIC of `COc1ccc(C(=O)N(C)C)cc1OC`
1.21

Fill in -logMIC for record `COc1ccccc1NC(=O)c1ccc(OC)c(OC)c1`
1.34

Output -logMIC of `COc1ccc(C(=O)Nc2cccc(Cl)c2)cc1OC`
1.39

Dear colleague, please send me the reported -logMIC for `COc1ccc(C(=O)NCc2ccccc2)cc1OC` when you can.
1.32
